# system: Muscarinic acetylcholine receptor M5 (Homo sapiens)
# Sequence (P08912 whole entry): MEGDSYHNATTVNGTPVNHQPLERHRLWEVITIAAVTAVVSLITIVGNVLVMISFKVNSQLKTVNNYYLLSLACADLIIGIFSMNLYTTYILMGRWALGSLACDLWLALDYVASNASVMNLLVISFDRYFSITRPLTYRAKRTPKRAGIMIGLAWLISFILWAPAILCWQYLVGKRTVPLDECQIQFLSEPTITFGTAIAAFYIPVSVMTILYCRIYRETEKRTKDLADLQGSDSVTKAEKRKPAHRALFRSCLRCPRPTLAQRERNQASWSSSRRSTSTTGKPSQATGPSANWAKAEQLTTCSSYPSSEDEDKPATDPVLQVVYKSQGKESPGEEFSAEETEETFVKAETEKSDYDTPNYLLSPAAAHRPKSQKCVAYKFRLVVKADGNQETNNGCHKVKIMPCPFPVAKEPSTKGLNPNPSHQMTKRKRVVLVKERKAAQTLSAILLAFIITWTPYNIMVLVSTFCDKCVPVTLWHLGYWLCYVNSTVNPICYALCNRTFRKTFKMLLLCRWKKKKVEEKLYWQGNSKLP
# assay-details: Antagonist activity at recombinant human M5 receptor expressed in CHO cells co-expressing Gqi5 by calcium mobilization assay
pIC50: −log10 of the molar value.
Overview of recorded pIC50 for various compounds
readout-type: pIC50

INSERT INTO assay_data (input_smiles, readout_type, readout_qualifier, val) VALUES
  ('O=C(C1CCN(c2cc(Oc3ccc(F)cc3F)ncn2)CC1)N1Cc2ccccc2C1', 'pIC50', '=', 5.95),
  ('O=C(C1CCN(c2cc(Oc3ccc(Cl)cc3)ncn2)CC1)N1CCc2ccccc2C1', 'pIC50', '=', 6.16),
  ('CCc1ccc(Oc2cc(N3CCC(C(=O)N4CCc5ccccc5C4)CC3)ncn2)cc1', 'pIC50', '>', 5.82),
  ('O=C(C1CCN(c2cc(Oc3ccccc3F)ncn2)CC1)N1CCc2ccccc2C1', 'pIC50', '=', 6.14),
  ('O=C(C1CCN(c2cc(Oc3ccc(F)cc3F)ncn2)CC1)N1CCc2ccccc2C1', 'pIC50', '=', 6.29);

----------
# system: Muscarinic acetylcholine receptor M4 (Homo sapiens, UniProt P08173)
# Sequence (P08173 whole entry): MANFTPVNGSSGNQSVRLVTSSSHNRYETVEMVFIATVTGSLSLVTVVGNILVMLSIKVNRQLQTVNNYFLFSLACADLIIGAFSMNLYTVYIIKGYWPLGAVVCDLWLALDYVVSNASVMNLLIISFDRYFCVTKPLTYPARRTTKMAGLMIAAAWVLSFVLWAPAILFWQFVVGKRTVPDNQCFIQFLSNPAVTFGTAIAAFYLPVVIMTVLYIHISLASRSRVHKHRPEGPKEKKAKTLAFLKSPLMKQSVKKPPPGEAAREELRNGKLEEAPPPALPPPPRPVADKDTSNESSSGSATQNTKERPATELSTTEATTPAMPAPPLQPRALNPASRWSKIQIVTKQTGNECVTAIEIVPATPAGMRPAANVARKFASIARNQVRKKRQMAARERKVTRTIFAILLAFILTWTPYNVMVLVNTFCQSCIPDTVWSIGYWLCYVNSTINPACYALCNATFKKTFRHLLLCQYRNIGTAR
# assay-details: Antagonist activity at recombinant human M4 receptor expressed in CHO cells co-expressing Gqi5 by calcium mobilization assay
# Format: functional, cell-based
# condition-info: read-out: IC50
readout-type: IC50 (nM)

INSERT INTO results (input_smiles, measurement_unit, readout_qualifier, val) VALUES
  ('O=C(C1CCN(c2cc(Oc3ccc(Cl)cc3F)ncn2)CC1)N1CCc2ccccc2C1', 'nM', '=', 150),
  ('O=C(C1CCN(c2cc(Oc3ccccc3F)ncn2)CC1)N1CCc2ccccc2C1', 'nM', '=', 130),
  ('O=C(C1CCN(c2cc(Oc3ccc(F)cc3F)ncn2)CC1)N1Cc2ccccc2C1', 'nM', '=', 340),
  ('O=C(C1CCN(c2cc(Oc3ccc(F)cc3)ncn2)CC1)N1CCc2ccccc2C1', 'nM', '=', 240),
  ('O=C(C1CCN(c2cc(Oc3ccccc3)ncn2)CC1)N1CCc2ccccc2C1', 'nM', '=', 650),
  ('COc1ccc2c(c1)CN(C(=O)C1CCN(c3cc(Oc4ccc(F)cc4F)ncn3)CC1)CC2', 'nM', '=', 2470),
  ('O=C(C1CCN(c2cc(Oc3ccc(F)cc3F)ncn2)CC1)N1CCCc2ccccc2C1', 'nM', '=', 1040),
  ('CN(Cc1ccccc1)C(=O)C1CCN(c2cc(Oc3ccc(F)cc3F)ncn2)CC1', 'nM', '>', 10000),
  ('CCc1ccc(Oc2cc(N3CCC(C(=O)N4CCc5ccccc5C4)CC3)ncn2)cc1', 'nM', '=', 380),
  ('O=C(NCc1ccccc1)C1CCN(c2cc(Oc3ccc(F)cc3F)ncn2)CC1', 'nM', '>', 10000),
  ('COc1ccc(Oc2cc(N3CCC(C(=O)N4CCc5ccccc5C4)CC3)ncn2)cc1', 'nM', '=', 460),
  ('O=C(C1CCN(c2cc(Oc3ccc4c(c3)OCO4)ncn2)CC1)N1CCc2ccccc2C1', 'nM', '=', 510),
  ('O=C(C1CCN(c2cc(Oc3cccc(F)c3)ncn2)CC1)N1CCc2ccccc2C1', 'nM', '=', 310);

----------
# system: Muscarinic acetylcholine receptor M4 (Homo sapiens)
# assay-details: Antagonist activity at recombinant human M4 receptor expressed in CHO cells co-expressing Gqi5 by calcium mobilization assay
# Type: functional, cell-based
# condition-info: read-out: IC50
IC50 reference
readout-type: IC50 (nM)

INSERT INTO results (molecule, measurement_unit, readout_qualifier, val) VALUES
  ('O=C(C1CCN(c2cc(Oc3ccc(Cl)cc3)ncn2)CC1)N1CCc2ccccc2C1', 'nM', '=', 140),
  ('O=C(C1CCN(c2cc(Oc3ccc(Cl)cc3Cl)ncn2)CC1)N1CCc2ccccc2C1', 'nM', '=', 270),
  ('O=C(C1CCN(c2cc(Oc3cccc(F)c3F)ncn2)CC1)N1CCc2ccccc2C1', 'nM', '=', 190),
  ('O=C(C1CCN(c2cc(Oc3ccc(F)cc3F)ncn2)CC1)N1CCC2CCCCC2C1 (centres undefined)', 'nM', '=', 410),
  ('COc1ccc2c(c1)CCN(C(=O)C1CCN(c3cc(Oc4ccc(F)cc4F)ncn3)CC1)C2', 'nM', '=', 580),
  ('O=C(C1CCN(c2cc(Oc3ccc(F)cc3F)ncn2)CC1)N1CCc2cc(C(F)(F)F)ccc2C1', 'nM', '>', 10000),
  ('O=C(C1CCN(c2cc(Oc3cc(F)ccc3F)ncn2)CC1)N1CCc2ccccc2C1', 'nM', '=', 80),
  ('Cc1ccc(Oc2cc(N3CCC(C(=O)N4CCc5ccccc5C4)CC3)ncn2)cc1', 'nM', '=', 310),
  ('O=C(C1CCN(c2cc(Oc3ccc(F)cc3F)ncn2)CC1)N1CCc2ccccc2C1', 'nM', '=', 100);

----------
# system: Muscarinic acetylcholine receptor M4 (Rattus norvegicus, UniProt P08485)
# Sequence (P08485 whole entry): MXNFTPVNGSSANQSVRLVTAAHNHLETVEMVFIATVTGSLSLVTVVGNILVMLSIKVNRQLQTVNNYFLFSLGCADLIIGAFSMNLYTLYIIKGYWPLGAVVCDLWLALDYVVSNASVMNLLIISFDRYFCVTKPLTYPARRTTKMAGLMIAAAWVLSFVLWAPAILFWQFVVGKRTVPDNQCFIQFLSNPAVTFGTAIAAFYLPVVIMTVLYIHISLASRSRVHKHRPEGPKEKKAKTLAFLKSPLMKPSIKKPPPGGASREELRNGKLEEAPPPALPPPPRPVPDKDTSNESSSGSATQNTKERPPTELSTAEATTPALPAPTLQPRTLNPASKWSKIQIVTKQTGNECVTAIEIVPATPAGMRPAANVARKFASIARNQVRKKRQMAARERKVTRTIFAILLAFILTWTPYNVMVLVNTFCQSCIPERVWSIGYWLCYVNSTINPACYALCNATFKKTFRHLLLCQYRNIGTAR
# assay-details: Antagonist activity at rat M4 receptor by calcium mobilization assay
# Type: functional
# condition-info: read-out: IC50
Measured IC50 accompanies every entry in the list below.
readout-type: IC50 (nM)

INSERT INTO measurements (input_smiles, val) VALUES
  ('O=C(C1CCN(c2cc(Oc3ccc(F)cc3F)ncn2)CC1)N1Cc2ccccc2C1', 560),
  ('CCc1ccc(Oc2cc(N3CCC(C(=O)N4CCc5ccccc5C4)CC3)ncn2)cc1', 590);

----------
Catalogue of IC50 readings, one per entry.
# system: Muscarinic acetylcholine receptor M2 (Homo sapiens, UniProt P08172)
# Sequence (P08172 whole entry): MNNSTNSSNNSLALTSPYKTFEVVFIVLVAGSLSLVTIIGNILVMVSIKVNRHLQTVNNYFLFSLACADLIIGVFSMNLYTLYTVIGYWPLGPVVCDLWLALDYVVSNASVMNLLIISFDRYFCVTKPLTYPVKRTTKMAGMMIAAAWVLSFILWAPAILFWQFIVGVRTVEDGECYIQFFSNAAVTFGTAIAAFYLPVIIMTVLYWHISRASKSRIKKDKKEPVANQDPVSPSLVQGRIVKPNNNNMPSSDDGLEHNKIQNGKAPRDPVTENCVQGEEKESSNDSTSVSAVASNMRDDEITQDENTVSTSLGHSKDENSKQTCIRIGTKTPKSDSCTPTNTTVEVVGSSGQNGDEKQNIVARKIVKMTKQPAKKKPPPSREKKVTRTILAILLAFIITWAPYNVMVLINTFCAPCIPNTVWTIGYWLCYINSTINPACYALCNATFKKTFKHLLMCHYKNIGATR
# assay-details: Antagonist activity at recombinant human M2 receptor expressed in CHO cells co-expressing Gqi5 by calcium mobilization assay
readout-type: IC50

INSERT INTO results (input_smiles, readout_type, val) VALUES
  ('O=C(C1CCN(c2cc(Oc3ccc(Cl)cc3)ncn2)CC1)N1CCc2ccccc2C1', 'IC50', '352 nM'),
  ('O=C(C1CCN(c2cc(Oc3ccc(F)cc3F)ncn2)CC1)N1CCc2ccccc2C1', 'IC50', '330 nM'),
  ('O=C(C1CCN(c2cc(Oc3ccccc3F)ncn2)CC1)N1CCc2ccccc2C1', 'IC50', '384 nM'),
  ('CCc1ccc(Oc2cc(N3CCC(C(=O)N4CCc5ccccc5C4)CC3)ncn2)cc1', 'IC50', '< 1500 nM'),
  ('O=C(C1CCN(c2cc(Oc3ccc(F)cc3F)ncn2)CC1)N1Cc2ccccc2C1', 'IC50', '520 nM');

Recorded values, source ChEMBL document CHEMBL4017477.
